Collected Inhibition activity Rep 2 values appear next to each entry.
- targetOfAssay: SpCas9 (Streptococcus pyogenes serotype M1)
- Sequence (Q99ZW2 whole entry): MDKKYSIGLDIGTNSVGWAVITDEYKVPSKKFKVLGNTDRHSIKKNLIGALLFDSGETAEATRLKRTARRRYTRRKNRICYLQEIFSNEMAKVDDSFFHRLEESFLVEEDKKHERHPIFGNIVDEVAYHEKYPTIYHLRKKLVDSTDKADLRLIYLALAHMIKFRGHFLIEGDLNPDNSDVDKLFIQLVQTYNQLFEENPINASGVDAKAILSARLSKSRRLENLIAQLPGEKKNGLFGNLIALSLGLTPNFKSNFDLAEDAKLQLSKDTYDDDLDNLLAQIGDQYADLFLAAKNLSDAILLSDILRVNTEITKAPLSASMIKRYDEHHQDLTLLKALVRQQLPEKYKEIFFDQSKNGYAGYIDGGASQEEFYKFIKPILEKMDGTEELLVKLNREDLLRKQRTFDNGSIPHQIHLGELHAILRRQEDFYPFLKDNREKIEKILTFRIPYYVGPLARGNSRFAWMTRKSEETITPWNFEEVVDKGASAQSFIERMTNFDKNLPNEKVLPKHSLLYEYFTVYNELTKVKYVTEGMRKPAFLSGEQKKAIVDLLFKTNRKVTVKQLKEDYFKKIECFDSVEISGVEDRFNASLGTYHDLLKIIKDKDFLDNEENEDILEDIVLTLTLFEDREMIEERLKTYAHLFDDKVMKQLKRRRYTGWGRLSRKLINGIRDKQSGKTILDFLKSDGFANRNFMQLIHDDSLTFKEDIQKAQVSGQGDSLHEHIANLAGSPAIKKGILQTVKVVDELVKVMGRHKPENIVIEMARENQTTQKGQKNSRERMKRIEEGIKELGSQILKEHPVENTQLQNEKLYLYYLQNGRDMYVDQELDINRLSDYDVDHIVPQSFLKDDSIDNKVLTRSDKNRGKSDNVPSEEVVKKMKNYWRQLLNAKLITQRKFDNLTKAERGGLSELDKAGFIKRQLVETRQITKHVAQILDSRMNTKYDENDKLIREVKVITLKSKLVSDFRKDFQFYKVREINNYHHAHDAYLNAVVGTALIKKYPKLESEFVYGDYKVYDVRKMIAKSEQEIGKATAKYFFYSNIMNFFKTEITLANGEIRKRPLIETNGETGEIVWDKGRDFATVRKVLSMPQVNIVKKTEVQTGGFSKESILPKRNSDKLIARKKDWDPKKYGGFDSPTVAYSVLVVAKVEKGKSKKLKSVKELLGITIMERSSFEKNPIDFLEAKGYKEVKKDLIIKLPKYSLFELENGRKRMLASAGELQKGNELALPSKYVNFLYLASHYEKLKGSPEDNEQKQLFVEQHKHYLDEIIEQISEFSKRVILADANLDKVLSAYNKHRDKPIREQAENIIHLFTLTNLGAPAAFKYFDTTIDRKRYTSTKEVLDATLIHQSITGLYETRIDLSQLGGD
- testDetails: eGFP-disruption assay in U2OS.eGFP.PEST cells
- Type: cell-based, S. pyogenes
- Parameters: host or cells: U2OS.eGFP.PEST
- conditionsUsed: screen of structural analogs of BRD7087; 15 μM compound, 24 h, U2OS.eGFP.PEST cells
- Method: SpCas9 nuclease activity in eGFP-disruption assay. […] Images were analyzed using MetaXpress software and data were plotted using GraphPad Prism 6. The Z′-value was calculated using the equation (1), where σ1 and σ2 are the standard deviations of DMSO control and SpCas9:gRNA control respectively. μ1 and μ2 are the mean % GFP^− cell population for DMSO control and SpCas9:gRNA control, respectively.

molecule: COc1cccc(S(=O)(=O)N2CC[C@H]3[C@@H](CO)N(C)c4ccc(C#Cc5cccnc5)cc4[C@H]32)c1 [BRD-K92333822]
Inhibition activity Rep 2: 57.1
--
molecule: O=S(=O)(c1cccc(F)c1)N1CC[C@@H]2[C@H](CO)Nc3ccc(C#Cc4ccccc4F)cc3[C@@H]21 [BRD-K12807496]
Inhibition activity Rep 2: 70.7
--
molecule: CN1c2ccc(C#Cc3ccccc3)cc2[C@@H]2[C@@H](CCN2S(=O)(=O)c2cn(C)cn2)[C@H]1CO [BRD-A34097118]
Inhibition activity Rep 2: 70.1
--
molecule: COc1ccccc1C#Cc1ccc2c(c1)[C@H]1NCC[C@H]1[C@@H](CO)N2 [BRD-K39870434]
Inhibition activity Rep 2: 82.5

Data provenance is patent US12391685B2.
